Assay Name: Solubility limit in aqueous solutions
Type: physicochemical

# Molecule, solubility
data = [
    ("O=c1ccc2nc3ccc(OCc4ccccc4)cc3oc-2c1 [7-BR, 7-benzyloxyresorufin]", "~10 µM"),
]
